# Tgt: PDZ2 of NHERF1 (Homo sapiens, UniProt O14745)
# Sequence (O14745 133-300): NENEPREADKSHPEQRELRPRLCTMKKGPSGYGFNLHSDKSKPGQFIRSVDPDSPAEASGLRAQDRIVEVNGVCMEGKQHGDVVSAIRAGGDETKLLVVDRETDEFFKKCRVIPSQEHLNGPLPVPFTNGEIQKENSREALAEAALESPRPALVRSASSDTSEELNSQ
# Test name: Isothermal titration calorimetry, NHERF1 PDZ2
# Type: binding
Ends that are not written are not given here.
Assay endpoint: Kd (µM)
// units = µM; emit number, no label

Worked examples, 2 sequences total:
1. QEAWETVM [QEAWETVM]    26.8
2. QEEWATVM [QEEWATVM]    35.5

Let us examine a further case.
In: Look at this sequence and give its reported Kd. QAEWETVM [QAEWETVM]
Out: 18.1

The reported numbers originate from paper PMC5479578.
